test: The drug is tested on Z-024 corresponding to pig gut metagenome with ENA study accession number: PRJEB37062 and ENA sample accession number: ERS12561823 for biotransformation under anaerobic condition. The drug concentrations were measured over 9 timepoints collected between 0 and 24 hours of incubation by liquid-chromatography-coupled mass spectrometry (LC–MS); conditions: 2 µM; further: call rule not given here
endpoint_label: Bacterial Biotransformation

Please review the entries below; each comes with its answer.
molecule	Bacterial Biotransformation
CC(=O)O[C@]1(C(C)=O)CC[C@H]2[C@@H]3C=C(C)C4=CC(=O)CC[C@]4(C)[C@H]3CC[C@@]21C [MEGESTROL ACETATE]	Compound NOT metabolized
O=C1N=C([O-])NC1(c1ccccc1)c1ccccc1.[Na+] [PHENYTOIN SODIUM]	Compound NOT metabolized
CCN(CC)CCNC(=O)c1ccc(NC(C)=O)cc1 [ACECAINIDE]	Compound NOT metabolized
CC(=O)CCCCn1c(=O)c2c(ncn2C)n(C)c1=O	Compound NOT metabolized
CC1=C(CC(=O)O)c2cc(F)ccc2/C1=C\c1ccc([S+](C)[O-])cc1 (stereo not drawn)	Compound metabolized

Asked: Please give the documented Bacterial Biotransformation of CC(C)C[C@H]1C(=O)N2CCC[C@H]2[C@]2(O)O[C@](NC(=O)[C@@H]3C=C4c5cccc6[nH]c(Br)c(c56)C[C@H]4N(C)C3)(C(C)C)C(=O)N12.CS(=O)(=O)O [BROMOCRIPTINE MESYLATE]
Given back: Compound metabolized

Asked: Please give the documented Bacterial Biotransformation of O=C(O)c1cc(/N=N/c2ccc(S(=O)(=O)Nc3ccccn3)cc2)ccc1O
Given back: Compound metabolized

Asked: Please give the documented Bacterial Biotransformation of Cc1cc2c(s1)Nc1ccccc1N=C2N1CCN(C)CC1
Given back: Compound NOT metabolized

###

conditions: human gut metagenome, 24 h, 2 µM
endpoint_label: Bacterial Biotransformation

compound	measurement
CCS(=O)(=O)CCn1c([N+](=O)[O-])cnc1C	Compound metabolized
C[C@@H](c1ncncc1F)[C@](O)(Cn1cncn1)c1ccc(F)cc1F	Compound metabolized
CC(C)(C)NCC(O)c1cc(Cl)c(N)c(Cl)c1 (configuration not stated)	Compound NOT metabolized
CN1CCC(OC(c2ccccc2)c2ccccc2)CC1	Compound NOT metabolized
COc1ccc(Cc2nccc3cc(OC)c(OC)cc23)cc1OC	Compound metabolized

Asked: Please give the documented Bacterial Biotransformation of COc1ccc([C@@H]2Sc3ccccc3N(CCN(C)C)C(=O)[C@@H]2OC(C)=O)cc1
Given back: Compound metabolized

Asked: Please give the documented Bacterial Biotransformation of C#C[C@]1(OC(C)=O)CC[C@H]2[C@@H]3CCC4=C/C(=N/O)CC[C@@H]4[C@H]3CC[C@@]21CC [NORGESTIMATE]
Given back: Compound metabolized

Asked: Please give the documented Bacterial Biotransformation of OC(c1cc(C(F)(F)F)nc2c(C(F)(F)F)cccc12)C1CCCCN1 (configuration not stated)
Given back: Compound NOT metabolized

Asked: Please give the documented Bacterial Biotransformation of CC(=O)O[C@H]1C(=O)[C@@]2(C)[C@H]([C@H](OC(=O)c3ccccc3)[C@]3(O)C[C@H](OC(=O)[C@H](O)[C@@H](NC(=O)c4ccccc4)c4ccccc4)C(C)=C1C3(C)C)[C@]1(OC(C)=O)CO[C@@H]1C[C@@H]2O
Given back: Compound NOT metabolized

Asked: Please give the documented Bacterial Biotransformation of CCN(C)C(=O)Oc1cccc([C@H](C)N(C)C)c1.O=C(O)C(O)C(O)C(=O)O [RIVASTIGMINE TARTRATE]
Given back: Compound NOT metabolized

Asked: Please give the documented Bacterial Biotransformation of COc1cc(NC(C)CCCN)c2ncccc2c1.O=P(O)(O)O.O=P(O)(O)O (configuration not stated) [PRIMAQUINE PHOSPHATE]
Given back: Compound NOT metabolized

Asked: Please give the documented Bacterial Biotransformation of CCCCC(=O)O[C@]1(C(=O)CO)[C@@H](C)C[C@H]2[C@@H]3CCC4=CC(=O)C=C[C@]4(C)[C@@]3(F)[C@@H](O)C[C@@]21C [BETAMETHASONE VALERATE]
Given back: Compound NOT metabolized

Asked: Please give the documented Bacterial Biotransformation of O=C1CC2(CCCC2)CC(=O)N1CCCCN1CCN(c2ncccn2)CC1
Given back: Compound metabolized

Asked: Please give the documented Bacterial Biotransformation of Cc1nc(Nc2ncc(C(=O)Nc3c(C)cccc3Cl)s2)cc(N2CCN(CCO)CC2)n1 [DASATINIB ANHYDROUS]
Given back: Compound metabolized

Asked: Please give the documented Bacterial Biotransformation of CCOC(=O)C1=C[C@]2(CC)CCCN3CCc4c(n1c1ccccc41)[C@@H]32
Given back: Compound metabolized

Asked: Please give the documented Bacterial Biotransformation of O=C1C(CC[S+]([O-])c2ccccc2)C(=O)N(c2ccccc2)N1c1ccccc1 (configuration not stated)
Given back: Compound metabolized

###

settings: human gut metagenome, 24 h, 2 µM
endpoint_label: Bacterial Biotransformation

compound	measurement
CC(C)c1nc(N(C)S(C)(=O)=O)nc(-c2ccc(F)cc2)c1/C=C/[C@@H](O)C[C@@H](O)CC(=O)[O-].CC(C)c1nc(N(C)S(C)(=O)=O)nc(-c2ccc(F)cc2)c1/C=C/[C@@H](O)C[C@@H](O)CC(=O)[O-].[Ca+2]	Compound NOT metabolized
CC(C)NCC(O)COc1ccc(CC(N)=O)cc1 (stereo not drawn)	Compound NOT metabolized

###

test: The drug is tested on Z-021 corresponding to metagenome with ENA study accession number: PRJEB37062 and ENA sample accession number: ERS12561820 for biotransformation under anaerobic condition. The drug concentrations were measured over 9 timepoints collected between 0 and 24 hours of incubation by liquid-chromatography-coupled mass spectrometry (LC–MS); details: 2 µM
endpoint_label: Bacterial Biotransformation

compound	measurement
CN1[C@@H]2CC[C@H]1C[C@@H](OC(=O)c1c[nH]c3ccccc13)C2 [TROPISETRON]	Compound NOT metabolized
O=C1CCc2ccc(OCCCCN3CCN(c4cccc(Cl)c4Cl)CC3)cc2N1 [ARIPIPRAZOLE]	Compound metabolized
CCc1oc2ccccc2c1C(=O)c1cc(Br)c(O)c(Br)c1 [BENZBROMARONE]	Compound NOT metabolized
CCN(C)C(=O)Oc1cccc([C@H](C)N(C)C)c1.O=C(O)C(O)C(O)C(=O)O [RIVASTIGMINE TARTRATE]	Compound NOT metabolized
CC(=O)O[C@H]1C(=O)[C@@]2(C)[C@H]([C@H](OC(=O)c3ccccc3)[C@]3(O)C[C@H](OC(=O)[C@H](O)[C@@H](NC(=O)c4ccccc4)c4ccccc4)C(C)=C1C3(C)C)[C@]1(OC(C)=O)CO[C@@H]1C[C@@H]2O [PACLITAXEL]	Compound NOT metabolized
COc1ccc(Cc2nccc3cc(OC)c(OC)cc23)cc1OC [PAPAVERINE]	Compound metabolized

Now for a further compound.
Asked: Please give the documented Bacterial Biotransformation of N=C(N)NC(=O)Cc1c(Cl)cccc1Cl [GUANFACINE]
Given back: Compound NOT metabolized

###

details: human gut metagenome, 24 h, 2 µM
endpoint_label: Bacterial Biotransformation

Please review the entries below; each comes with its answer.
> print(dat)
                                   molecule               measurement
1  CN1[C@@H]2CC[C@H]1C[C@@H](OC(=O)c1c[nH]c3ccccc13)C2  Compound NOT metabolized
2  O=C1CN2Cc3c(ccc(Cl)c3Cl)N=C2N1 [ANAGRELIDE]      Compound metabolized
3  CCN(C)C(=O)Oc1cccc([C@H](C)N(C)C)c1.O=C(O)C(O)C(O)C(=O)O [RIVASTIGMINE TARTRATE]  Compound NOT metabolized
4  OC(c1cc(C(F)(F)F)nc2c(C(F)(F)F)cccc12)C1CCCCN1 (stereo not given)      Compound metabolized

Now for a further molecule.
Asked: Please give the documented Bacterial Biotransformation of CCOC(=O)C1=C(C)NC(C)=C(C(=O)OC)C1c1cccc([N+](=O)[O-])c1 (stereo not given)
Given back: Compound metabolized

###

test: The drug is tested on Z-011 corresponding to mouse gut metagenome with ENA study accession number: PRJEB37062 and ENA sample accession number: ERS12561811 for biotransformation under anaerobic condition. The drug concentrations were measured over 9 timepoints collected between 0 and 24 hours of incubation by liquid-chromatography-coupled mass spectrometry (LC–MS); settings: 2 µM
endpoint_label: Bacterial Biotransformation

Please review the entries below; each comes with its answer.
> print(dat)
                                   compound               measurement
1      CN(C/C=C/C#CC(C)(C)C)Cc1cccc2ccccc12  Compound NOT metabolized
2  OCCN(CCO)c1nc(N2CCCCC2)c2nc(N(CCO)CCO)nc(N3CCCCC3)c2n1  Compound NOT metabolized
3  O=C1CCc2ccc(OCCCCN3CCN(c4cccc(Cl)c4Cl)CC3)cc2N1  Compound NOT metabolized
4  CN1CCN2c3ccccc3Cc3ccccc3C2C1 (stereo not drawn)      Compound metabolized
5  O=P1(N(CCCl)CCCl)NCCCO1 (stereo not drawn) [CYCLOPHOSPHAMIDE ANHYDROUS]  Compound NOT metabolized

Asked: Please give the documented Bacterial Biotransformation of N#Cc1ccc2[nH]cc(CCCCN3CCN(c4ccc5oc(C(N)=O)cc5c4)CC3)c2c1
Given back: Compound metabolized

Asked: Please give the documented Bacterial Biotransformation of O=C(O)CCC(=O)O.O=C(O[C@H]1CN2CCC1CC2)N1CCc2ccccc2[C@@H]1c1ccccc1 [SOLIFENACIN SUCCINATE]
Given back: Compound NOT metabolized

Asked: Please give the documented Bacterial Biotransformation of COc1cc(NC(C)CCCN)c2ncccc2c1.O=P(O)(O)O.O=P(O)(O)O (stereo not drawn) [PRIMAQUINE PHOSPHATE]
Given back: Compound NOT metabolized
